In this section, each of the compounds is paired with its reported inhibition at 1 µM.
- Study Target: human 17β-HSD1 (Homo sapiens, UniProt P14061)
- Construct: For the partial purification of 17β-HSD1, the cytosolic fraction was precipitated with ammonium sulfate; from tissue; host or cells: human placenta, cytosolic fraction, ammonium sulfate precipitate
- Sequence (P14061 1-328): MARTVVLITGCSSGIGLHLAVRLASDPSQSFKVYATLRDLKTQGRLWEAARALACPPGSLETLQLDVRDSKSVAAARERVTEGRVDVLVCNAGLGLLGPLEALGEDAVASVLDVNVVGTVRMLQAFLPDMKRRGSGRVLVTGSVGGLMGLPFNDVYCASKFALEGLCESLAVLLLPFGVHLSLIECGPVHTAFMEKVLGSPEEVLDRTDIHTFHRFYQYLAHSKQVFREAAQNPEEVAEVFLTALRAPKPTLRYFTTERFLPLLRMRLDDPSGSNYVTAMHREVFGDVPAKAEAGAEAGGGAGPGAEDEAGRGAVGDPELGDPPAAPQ
- Protocol Description: Inhibition of human 17β-HSD1 (conversion of [3H]-E1 to E2, HPLC radioflow detection)
- Format: biochemical
- Experimental Setup: read-out: % inhibition h17β-HSD1 @ 1 μM
Parameter: inhibition at 1 µM (%)

>  <Compound>
COc1c(Cl)cc(-c2ccc(C(=O)c3c(F)ccc(OC(C)=O)c3F)s2)cc1Cn1ccnn1 [Compound 31a]

>  <Study Target>
human 17β-HSD1 (Homo sapiens, UniProt P14061)

>  <Endpoint Value>
28

$$$$
>  <Compound>
Cc1c(O)cccc1C(=O)c1ccc(-c2ccc(O)c(Cl)c2)s1 [E, reference compound]

>  <Study Target>
human 17β-HSD1 (Homo sapiens, UniProt P14061)

>  <Endpoint Value>
76

$$$$
>  <Compound>
Nc1cccc(-c2ccc(C(=O)c3cccc(O)c3)s2)c1 [F, reference compound]

>  <Study Target>
human 17β-HSD1 (Homo sapiens, UniProt P14061)

>  <Endpoint Value>
77

$$$$
>  <Compound>
O=C(c1ccc(-c2ccncc2)s1)c1c(F)ccc(O)c1F [Compound 8]

>  <Study Target>
human 17β-HSD1 (Homo sapiens, UniProt P14061)

>  <Endpoint Value>
27

$$$$
>  <Compound>
O=C(c1ccc(-c2cc(Cl)c(O)c(Cn3ccnn3)c2)s1)c1c(F)ccc(O)c1F [Compound 32]

>  <Study Target>
human 17β-HSD1 (Homo sapiens, UniProt P14061)

>  <Endpoint Value>
37

$$$$
>  <Compound>
COc1ccc(-c2ccc(C(=O)c3c(F)ccc(O)c3F)s2)cc1S(=O)(=O)N1CCOCC1 [Compound 19]

>  <Study Target>
human 17β-HSD1 (Homo sapiens, UniProt P14061)

>  <Endpoint Value>
79

$$$$
>  <Compound>
O=C(c1cccc(O)c1)c1ccc(-c2ccc(F)cc2F)s1 [A, reference compound]

>  <Study Target>
human 17β-HSD1 (Homo sapiens, UniProt P14061)

>  <Endpoint Value>
32

$$$$
>  <Compound>
O=C(c1ccc(-c2cccnc2)s1)c1c(F)ccc(O)c1F [Compound 9]

>  <Study Target>
human 17β-HSD1 (Homo sapiens, UniProt P14061)

>  <Endpoint Value>
57

$$$$

====

- Study Target: mouse 17β-HSD2 (Mus musculus, UniProt P51658)
- Construct: The pellet fractions containing the microsomal 17β-HSD2 were used for the determination of E1 formation; from tissue; host or cells: mouse liver, microsomal fraction
- Sequence (P51658 1-381): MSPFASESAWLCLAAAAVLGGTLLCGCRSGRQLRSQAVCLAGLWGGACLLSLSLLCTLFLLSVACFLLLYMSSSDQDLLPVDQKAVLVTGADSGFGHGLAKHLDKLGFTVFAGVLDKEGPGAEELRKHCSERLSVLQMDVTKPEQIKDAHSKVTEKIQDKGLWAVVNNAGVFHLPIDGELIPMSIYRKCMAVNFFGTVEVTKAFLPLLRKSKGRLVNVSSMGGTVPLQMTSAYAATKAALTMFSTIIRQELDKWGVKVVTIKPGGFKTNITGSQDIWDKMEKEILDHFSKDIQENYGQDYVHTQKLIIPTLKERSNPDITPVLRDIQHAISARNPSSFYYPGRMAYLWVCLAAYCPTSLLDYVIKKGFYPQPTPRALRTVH
- Protocol Description: Inhibition of mouse 17β-HSD2 (liver microsomal fraction)
- Type: biochemical
- Experimental Setup: read-out: % inhibition m17β-HSD2 @ 50 nM
Param threshold (30%) applies to inhibition at 0.05 µM; output 1 when value >= threshold, 0 when value < threshold.

>  <Compound>
O=C(c1ccc(-c2ccc3[nH]ccc3c2)s1)c1cc(F)c(F)c(O)c1F [Compound 61]

>  <Study Target>
mouse 17β-HSD2 (Mus musculus, UniProt P51658)

>  <Classification>
1

$$$$
>  <Compound>
O=C(c1ccc(-c2ccc(O)cc2)s1)c1cc(F)c(F)c(O)c1F [Compound 68]

>  <Study Target>
mouse 17β-HSD2 (Mus musculus, UniProt P51658)

>  <Classification>
1

$$$$
>  <Compound>
O=C(c1ccc(-c2cccc(O)c2)s1)c1cc(F)c(F)c(O)c1F [Compound 69]

>  <Study Target>
mouse 17β-HSD2 (Mus musculus, UniProt P51658)

>  <Classification>
1

$$$$
>  <Compound>
Cc1cc(-c2ccc(C(=O)c3cc(F)cc(O)c3C)s2)cc(C)c1O [Compound 71]

>  <Study Target>
mouse 17β-HSD2 (Mus musculus, UniProt P51658)

>  <Classification>
1

$$$$
>  <Compound>
CS(=O)(=O)Nc1cccc(-c2ccc(C(=O)c3cc(F)c(F)c(O)c3F)s2)c1 [Compound 63]

>  <Study Target>
mouse 17β-HSD2 (Mus musculus, UniProt P51658)

>  <Classification>
1

$$$$
>  <Compound>
Cc1cc(-c2ccc(C(=O)c3cc(F)c(F)c(O)c3C)s2)cc(C)c1O [Compound 72]

>  <Study Target>
mouse 17β-HSD2 (Mus musculus, UniProt P51658)

>  <Classification>
0

$$$$
>  <Compound>
CC(=O)Nc1ccc(-c2ccc(C(=O)c3cc(F)c(F)c(O)c3F)s2)cc1 [Compound 64]

>  <Study Target>
mouse 17β-HSD2 (Mus musculus, UniProt P51658)

>  <Classification>
0

$$$$
>  <Compound>
Cc1cc(-c2ccc(C(=O)c3cccc(O)c3Cl)s2)cc(C)c1O [Compound 79]

>  <Study Target>
mouse 17β-HSD2 (Mus musculus, UniProt P51658)

>  <Classification>
1

$$$$
>  <Compound>
COc1ccccc1-c1ccc(C(=O)c2cc(F)c(F)c(O)c2F)s1 [Compound 53]

>  <Study Target>
mouse 17β-HSD2 (Mus musculus, UniProt P51658)

>  <Classification>
1

$$$$
>  <Compound>
COc1c(Cl)cc(-c2ccc(C(=O)c3c(F)ccc(O)c3Cl)s2)cc1Cl [Compound 78]

>  <Study Target>
mouse 17β-HSD2 (Mus musculus, UniProt P51658)

>  <Classification>
1

$$$$
>  <Compound>
Nc1ccccc1-c1ccc(C(=O)c2cc(F)c(F)c(O)c2F)s1 [Compound 55]

>  <Study Target>
mouse 17β-HSD2 (Mus musculus, UniProt P51658)

>  <Classification>
0

$$$$
>  <Compound>
NS(=O)(=O)c1ccc(-c2ccc(C(=O)c3c(F)ccc(O)c3F)s2)cc1 [Compound 75]

>  <Study Target>
mouse 17β-HSD2 (Mus musculus, UniProt P51658)

>  <Classification>
0

$$$$
>  <Compound>
Nc1cc(-c2ccc(C(=O)c3cc(F)c(F)c(O)c3F)s2)ccc1O [Compound 59]

>  <Study Target>
mouse 17β-HSD2 (Mus musculus, UniProt P51658)

>  <Classification>
0

$$$$
>  <Compound>
NS(=O)(=O)c1cccc(-c2ccc(C(=O)c3c(F)ccc(O)c3F)s2)c1 [Compound 76]

>  <Study Target>
mouse 17β-HSD2 (Mus musculus, UniProt P51658)

>  <Classification>
0

$$$$
>  <Compound>
O=C(c1ccc(-c2cccc3[nH]ccc23)s1)c1cc(F)c(F)c(O)c1F [Compound 62]

>  <Study Target>
mouse 17β-HSD2 (Mus musculus, UniProt P51658)

>  <Classification>
1

$$$$
>  <Compound>
COc1ccc(-c2ccc(C(=O)c3cc(F)c(F)c(O)c3F)s2)cc1N [Compound 60]

>  <Study Target>
mouse 17β-HSD2 (Mus musculus, UniProt P51658)

>  <Classification>
0

$$$$
>  <Compound>
Cc1c(N)cccc1-c1ccc(C(=O)c2cc(F)c(F)c(O)c2F)s1 [Compound 58]

>  <Study Target>
mouse 17β-HSD2 (Mus musculus, UniProt P51658)

>  <Classification>
1

$$$$
>  <Compound>
COc1cccc(-c2ccc(C(=O)c3cc(F)c(F)c(O)c3F)s2)c1 [Compound 52]

>  <Study Target>
mouse 17β-HSD2 (Mus musculus, UniProt P51658)

>  <Classification>
0

$$$$

The reported measurements were obtained from patent US9884839B2.
